Just for reference, paper PMC5927802 is where these values come from.

ASSAY TEXT: Plasma pharmacokinetics, Phase I open‐label two‐group fixed‐sequence drug‐drug interaction study
TEST CONDITIONS: human, in vivo, T max, Group 1 Day 13, AL‐335 + SMV; median (range)
MEASURED PROPERTY: Tmax (h)
Return type: number; implicit unit h.

Task: Entry `CC(C)OC(=O)[C@H](C)N[P@](=O)(OC[C@@]1(F)O[C@@H](n2ccc(=O)[nH]c2=O)[C@](C)(O)[C@@H]1O)Oc1ccccc1` needs its Tmax filled in; supply it.
Output: 2

* * *

ASSAY TEXT: Plasma pharmacokinetics, Phase I open‐label two‐group fixed‐sequence drug‐drug interaction study
TEST CONDITIONS: human, plasma, oral, Cmax, Group 2 Day 23, SMV + AL‐335 + ODV; mean (SD)
MEASURED PROPERTY: Cmax

Task: Note Cmax for the molecule shown: COc1ccc2c(O[C@@H]3C[C@H]4C(=O)N[C@]5(C(=O)NS(=O)(=O)C6CC6)C[C@H]5/C=C\CCCCN(C)C(=O)[C@@H]4C3)cc(-c3nc(C(C)C)cs3)nc2c1C [simeprevir]
Output: 4950 ng/mL

* * *

ASSAY TEXT: Plasma pharmacokinetics, Phase I open‐label two‐group fixed‐sequence drug‐drug interaction study
TEST CONDITIONS: human, in vivo, 800 mg, T max, Group 1 Day 3, AL‐335 alone; median (range)
MEASURED PROPERTY: Tmax (h)
Just the number in h, nothing appended.

Task: Give reported Tmax value for `CC(C)OC(=O)[C@H](C)N[P@](=O)(OC[C@@]1(F)O[C@@H](n2ccc(=O)[nH]c2=O)[C@](C)(O)[C@@H]1O)Oc1ccccc1`
Output: 2

* * *

ASSAY TEXT: Plasma pharmacokinetics, Phase I open‐label two‐group fixed‐sequence drug‐drug interaction study
TEST CONDITIONS: human, in vivo, AUC0‐24 h, Group 1 Day 23, AL‐335 + ODV + SMV; mean (SD)
MEASURED PROPERTY: AUC (ng·h/mL)
The reply should be a number in ng·h/mL, with the unit left off.

Task: Please look at this molecule and report its AUC: `CC(C)OC(=O)[C@H](C)N[P@](=O)(OC[C@@]1(F)O[C@@H](n2ccc(=O)[nH]c2=O)[C@](C)(O)[C@@H]1O)Oc1ccccc1`
Output: 2080
